Entries annotated with measured Trimeric HA Binding RLU
- Assayed target: recombinant homotrimeric HA, A/Indonesia/5/05 H5N1 (Influenza A virus A/Indonesia/5/05 (H5N1))
- Assay comment: trimeric HA microarray, transfection set 2
- Study conditions: remark: other sources report otherwise
Give just the numeric value; RLU need not be written.

1) TCN-523 (5248_A17) (antibody, V domains shown) VH: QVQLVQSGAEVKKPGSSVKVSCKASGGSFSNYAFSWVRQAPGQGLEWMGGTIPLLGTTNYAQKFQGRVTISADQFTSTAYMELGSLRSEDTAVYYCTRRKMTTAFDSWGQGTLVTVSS VL: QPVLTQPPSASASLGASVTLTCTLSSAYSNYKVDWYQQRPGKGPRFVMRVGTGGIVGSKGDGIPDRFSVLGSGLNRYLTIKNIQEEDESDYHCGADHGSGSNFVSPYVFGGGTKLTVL	24500
2) TCN-527 (5086_C06) (antibody, V domains shown) VH: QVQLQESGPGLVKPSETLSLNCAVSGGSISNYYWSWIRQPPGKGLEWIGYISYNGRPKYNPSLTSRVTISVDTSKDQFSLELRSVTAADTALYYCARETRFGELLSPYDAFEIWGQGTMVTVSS VL: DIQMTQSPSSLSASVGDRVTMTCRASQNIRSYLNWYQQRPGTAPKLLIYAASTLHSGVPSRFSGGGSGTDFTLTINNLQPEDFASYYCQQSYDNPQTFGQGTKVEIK	23400

Turning to the following binder.
Reported Trimeric HA Binding RLU for TCN-504 (3251_K17) (antibody, V domains shown) VH: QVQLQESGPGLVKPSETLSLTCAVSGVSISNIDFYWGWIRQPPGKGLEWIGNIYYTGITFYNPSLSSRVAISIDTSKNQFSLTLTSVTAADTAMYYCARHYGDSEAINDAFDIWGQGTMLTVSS VL: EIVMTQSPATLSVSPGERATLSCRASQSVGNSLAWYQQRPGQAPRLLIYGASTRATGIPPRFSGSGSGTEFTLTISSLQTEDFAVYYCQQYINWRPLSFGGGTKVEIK : what is it?
19700
